- TARGET OF ASSAY: VTCN1, Q7Z7D3
- Sequence (Q7Z7D3 whole entry): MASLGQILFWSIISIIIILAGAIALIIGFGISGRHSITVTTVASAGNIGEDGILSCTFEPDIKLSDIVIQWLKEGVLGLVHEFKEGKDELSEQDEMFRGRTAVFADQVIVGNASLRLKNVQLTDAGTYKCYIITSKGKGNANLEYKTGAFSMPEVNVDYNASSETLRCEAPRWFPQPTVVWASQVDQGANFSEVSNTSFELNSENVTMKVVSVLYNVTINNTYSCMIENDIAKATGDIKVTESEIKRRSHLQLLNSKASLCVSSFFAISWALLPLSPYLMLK
OBSERVATION TYPE: binding in a display sort

{"BINDER": "design_609_7ee6ce64-4629-41e8-bcb4-ba0da017284d_1161_dldesign_0_cycle1_af2pred (protein) GSEEARKLQEEFGEALRRFTAAGRRLVETGREVGERTGDPEIEERARRVAEEGNRRRLEALDAGDVEAILAVADELERATEELL", "TEST RESULT": "not found (inactive)"}
{"BINDER": "design_604_3e0b3014-b333-46f1-8adc-d7f0bf8048fa_1215_dldesign_0_cycle1_af2pred (protein) SRVEELGKRLANKGKKYSLDDAADFGAEMAIMAGLTEEEAEAAFKYAAEIDPSFAEAMKKGLALYKELTA", "TEST RESULT": "not found (inactive)"}
{"BINDER": "design_608_fd41b8f9-4da9-4c78-93ec-aaa316ed4933_1306_dldesign_0_cycle1_af2pred (protein) GKEEAEKILKEAKAKLDALAKENPALAPLAAEAKERIEKKYKKAIEADEKDPKQGKAAAEALKEFAKNAVAAVEKKK", "TEST RESULT": "not found (inactive)"}
